Assay: in vitro
Conditions: human, hela cells, % viability
Rule: viability at 28.5 h, 10 µM below 90% gives t, anything at or above gives f.

Query: Record CS(=O)(=O)c1ccc(CN2C(=O)CC3(CCN(C(=O)Cc4cccs4)CC3)C2=O)cc1 [CBK155013] : is its viability at 28.5 h, 10 µM strictly below 90%?
Response: f

* * *

Assay: in vitro
Details: human, hela cells, % viability
Rule: viability at 28.5 h, 10 µM below 90% gives True, anything at or above gives False.

Example cases with answers are listed next.
CN1CCN(CCOC(=O)N2CCCC(C(F)(F)F)C2)CC1 (stereo not drawn) [CBK200207] ... True
COc1cccc(CN2CC[C@H]3[C@@H](C2)[C@H](c2ccsc2)CN3C(=O)c2ccccc2)c1 [CBK285616] ... False
OCc1ccc(-c2nccnc2NCCc2c[nH]c3ccccc23)cc1 [CBK038004] ... False
CCCC/C=C/c1cnc(N2CCOCC2)c2nccn12 [CBK091256] ... False
COC(=O)c1ccc(NS(=O)(=O)c2cc(Cl)sc2Cl)cc1 [CBK028684] ... False
Cc1ncsc1C(=O)N1CCC2(C/C=C/C[C@H]3COCC[C@H]3NC(=O)[C@@H](CC(C)C)NC2=O)CC1 [CBK292187] ... False

Now take the following compound into account.
Query: Record O=C(CCc1ccc(O)c(O)c1)NNC(=S)Nc1ccc(F)cc1F [CBK267041] : is its viability at 28.5 h, 10 µM strictly below 90%?
Response: False

* * *

Assay: in vitro
Settings: human, hela cells, % viability
Each entry below carries its recorded viability at 28.5 h, 10 µM.
Numeric only. Scale: %

Sample records with viability at 28.5 h, 10 µM:
CCN(CCO)c1ccc(Nc2nc(-c3ccc(F)c(Cl)c3)cn3ccnc23)cc1 ... 100
Cn1nc(-c2ccc(S(=O)(=O)Nc3cccc(C(=O)O)c3)s2)cc1C(F)(F)F ... 86.9
Clc1cc(-c2cnc3ccccc3n2)c(Cl)s1 ... 85.4
Nc1nc(Cn2nc(-c3ccc(F)cc3)oc2=O)nc(Nc2ccc(F)cc2)n1 ... 91.6
O=c1sc(Nc2ccccc2)nc2ccsc12 ... 91.9
COc1nc(SC)nc2[nH]ccc12 ... 95
O=[N+]([O-])c1ccc(S(=O)(=O)NCCSCc2cccc(Cl)c2)cc1 ... 107
CCN(CC)C(=O)N1CCC(c2ccncc2)CC1 ... 101
C=CCOc1ccc(Cl)cc1C(=O)NCc1c(C)n[nH]c1C ... 82.6
Cc1ccc(-c2nc3cc(Cl)ccc3o2)cc1NC(=S)NC(=O)c1cccc(Cl)c1 ... 108

Query: # input molecule: `CC(C)n1cnnc1CN(C)C(=O)CCc1nc2ccccc2s1` ; wanted: its viability at 28.5 h, 10 µM
Response: 97

Query: # input molecule: `FC(F)(F)c1nnc(-c2cc3sccc3s2)o1` ; wanted: its viability at 28.5 h, 10 µM
Response: 96.4

* * *

Test: in vitro
Conditions: human, hela cells, % viability
Each entry below carries its recorded viability at 28.5 h, 10 µM.
Numeric only. Scale: %

Sample records with viability at 28.5 h, 10 µM:
Cc1cc2ncc3c(n2n1)CC1CCC3N1C(=O)CCc1ccco1 (stereo not shown) ... 78.2
O=C1CSC2(C(=O)N(Cc3cccc(C(F)(F)F)c3)c3ccccc32)N1c1ccccc1 (stereo not shown) ... 108
O=C([C@H]1O[C@H](CCN2CCN(c3ccccc3)CC2)CC[C@@H]1O)N1CCOCC1 ... 98.5
Fc1ccc(CN2C3CCCC2CC(NC(=S)NC2CCCCC2)C3)cc1 (stereo not shown) ... 90
C=CCNC(=O)C[C@@H]1CCN(C(=O)c2ccnc(Cl)c2)C[C@@H]1CC ... 94.3

Query: # input compound: `O=C(Cn1c(-c2cccs2)cc2cccnc21)NCc1ccncc1` ; wanted: its viability at 28.5 h, 10 µM
Response: 104

Query: # input compound: O=C(O)C1Cc2ccccc2CN1C(=O)c1ccccc1 (stereo not shown) ; wanted: its viability at 28.5 h, 10 µM
Response: 102

Query: # input compound: `O=C(CSCc1ccc(Cl)cc1)Nc1ccc(O)cc1C(=O)O` ; wanted: its viability at 28.5 h, 10 µM
Response: 97.1

Query: # input compound: O=C(Cc1cccc(F)c1)N1C2CCC1CC(O)(c1ccco1)C2 (stereo not shown) ; wanted: its viability at 28.5 h, 10 µM
Response: 95.3

* * *

Test: in vitro
Conditions: human, hela cells, % viability
Each entry below carries its recorded viability at 28.5 h, 10 µM.
Numeric only. Scale: %

Sample records with viability at 28.5 h, 10 µM:
COC(=O)c1c(NC(=O)C(C)Oc2cc(C)c(Cl)c(C)c2)sc(C(C)=O)c1C (stereo not shown) [CBK265678] ... 94.1
CC(NC(=O)Cn1c(=O)oc2ccc(Cl)cc21)C1CC2CCC1C2 (stereo not shown) [CBK281636] ... 87.7
O=C(NCc1ccncc1)Nc1ccc([N+](=O)[O-])cc1 [CBK264319] ... 110
CC(C)Oc1cccc(CNC(=O)c2ccc(C(C)(C)C)[nH]c2=O)c1 [CBK281415] ... 92.2
COc1ccccc1-c1nccnc1NCCCO [CBK088971] ... 98.8
CCN1CCN(C(=O)c2ccc(CN(c3ccc(C)c(C)c3)S(C)(=O)=O)cc2)CC1 [CBK267132] ... 92.6
NC(=O)c1c(NC(=O)c2nc3ccccc3s2)sc2c1CCCCC2 [CBK287566] ... 96.5
O=C(NC(C(=O)O)c1ccccc1)NC12CC3CC(CC(C3)C1)C2 (stereo not shown) [CBK268313] ... 109
NC(=O)c1cccnc1N1CCN(CCCN(c2ccc(F)cc2)c2ccc(F)cc2)CC1 [CBK025341C] ... 110
N#CCCCN1CCC(Oc2cncc(OCc3cccnc3)n2)C1 (stereo not shown) [CBK084466] ... 105

Query: # input compound: O=C1c2cccc3cccc(c23)C(=O)N1CCN1CCN(CC(O)COc2ccc3c(c2)OCO3)CC1 (stereo not shown) [CBK074849C] ; wanted: its viability at 28.5 h, 10 µM
Response: 87.4

* * *

Test: in vitro
Conditions: human, hela cells, % viability
Each entry below carries its recorded viability at 28.5 h, 10 µM.
Numeric only. Scale: %

CN(C)CCN1CCN(c2cccc(-c3ccc(-c4ccccc4)cc3)n2)CC1 ... 103
COc1cc(CNCc2ccc(F)cc2)cc(Cl)c1OCC(N)=O [CBK270256C] ... 89
OCCC1CCCCN1c1cncc(C2CCOC2)n1 (stereo not drawn) ... 101
CC(C)CCN(Cc1ccc(-c2ccc(S(C)(=O)=O)cc2)nc1)C1CCN(C(=O)OC(C)(C)C)CC1 ... 83.4
O=C(c1cccc(F)c1)N1CCCC(c2cc3cccnc3[nH]2)C1 (stereo not drawn) ... 122
Cc1cn(CC(=O)N2CCCC3(CCN(C(=O)c4ccoc4)C3)C2)c(=O)[nH]c1=O (stereo not drawn) ... 104
CCOc1cc(OCC)cc(C(=O)N2CCC3(CC2)CC(=O)c2ccc(OCC)c(C)c2O3)c1 ... 112
Cc1nn(CC(=O)NC(C)(C)C)c(=O)c2cc3ccsc3n12 ... 83.2

Query: # input compound: `COc1cccc(-c2nnnn2[C@H]2CO[C@H]3[C@@H]2OC[C@@H]3NC(=O)c2ccc(C)cc2)c1` ; wanted: its viability at 28.5 h, 10 µM
Response: 94.1

* * *

Test: in vitro
Settings: human, hela cells, % viability
Each entry below carries its recorded viability at 28.5 h, 10 µM.
Numeric only. Scale: %

NC(=O)Cn1c(=O)n(CCc2ccccc2)c(=O)c2c3c(sc21)CCCC3 ... 103
CSCCC(NC(=O)c1ccc(C#CC(C)(C)O)cc1)C(=O)O (stereo not drawn) ... 93.9
Cc1cc(OC(C)C(=O)NCc2ccccn2)ccc1Cl (stereo not drawn) ... 110

Query: # input compound: `O=C(CN1CCC(c2nc3ccccc3[nH]2)CC1)Nc1ccc(F)cc1` ; wanted: its viability at 28.5 h, 10 µM
Response: 90

Query: # input compound: CC1CCc2c(sc(NC(=O)c3ccno3)c2C(N)=O)C1 (stereo not drawn) ; wanted: its viability at 28.5 h, 10 µM
Response: 85.4

* * *

Test: in vitro
Conditions: human, hela cells, % viability
readoutName: viability at 28.5 h, 10 µM (%)
Numeric only. Scale: %

Sample records with viability at 28.5 h, 10 µM:
COc1ccc(Br)cc1S(=O)(=O)n1ccnc1C ... 87.1
Nc1cccc2c(OCCO)cccc12 [CBK001976C] ... 91.8

Query: # input compound: NC[C@H]1CC[C@H](C(=O)NCC2CCCN(Cc3ccccc3)C2)CC1 (some centres unmarked) ; wanted: its viability at 28.5 h, 10 µM
Response: 89.6

Query: # input compound: `O=C(c1cccc(S(=O)(=O)N2CCOCC2)c1)N(Cc1ccc(F)cc1)Cc1ccco1` ; wanted: its viability at 28.5 h, 10 µM
Response: 92.8

Query: # input compound: `O=C(CSc1nncc(=O)[nH]1)NCc1ccccc1` ; wanted: its viability at 28.5 h, 10 µM
Response: 85.3

Query: # input compound: `O=S(=O)(Nc1ccccc1O)c1ccc(OC(F)(F)F)cc1` ; wanted: its viability at 28.5 h, 10 µM
Response: 80.2

Query: # input compound: `Cc1cc2c(cc3c(=O)n(CC(=O)N4CCCCC4)nc(C)n32)s1` ; wanted: its viability at 28.5 h, 10 µM
Response: 95.3

Query: # input compound: `CCN(CC)C(=O)CN(CCc1ccc(OC)c(OC)c1)C(=O)NCc1ccc(Cl)cc1` ; wanted: its viability at 28.5 h, 10 µM
Response: 110

Query: # input compound: `NC(=O)CN1CC2(CCNCC2)c2ccccc21` ; wanted: its viability at 28.5 h, 10 µM
Response: 117

Query: # input compound: N#CC1(NC(=O)CN2CCOC(Cn3cccn3)C2)CCCCC1 (centres unmarked) ; wanted: its viability at 28.5 h, 10 µM
Response: 87.2

Query: # input compound: `COc1ccccc1N1CCN(CCNC(=O)Nc2cccc(C)c2C)CC1` ; wanted: its viability at 28.5 h, 10 µM
Response: 90.2

Data origin: paper PMC12040169
